In this section, each of the molecules is paired with its reported pEC50.
Molecular target: KCNQ2/3 channels (Homo sapiens, UniProt O43525+O43526)
Assay: Fluorescence assay using a voltage sensitive dye (fluorimetry)
Conditions: CHO-K1 cells expressing KCNQ2/3 channels, agonistic activity
Procedure: Pharmacological Experiments Fluorescence Assay Using a Voltage Sensitive Dye […] The fluorescence measurements are carried out with a BMG Labtech FLUOstar™ BMG Labtech NOVOstar™ or BMG Labtech POLARstar™ instrument (525 nm excitation, 560 nm emission, Bottom Read mode). […] The fluorescence intensity of the dye is then measured for 5 min and the fluorescence value F1 of each well is thus determined at a given, constant time. […]
// pEC50: -log10(molar conc.)

Here's what some known entries look like.
MOLECULE	pEC50
COC(=O)c1cccc(CNC(=O)c2cccnc2SCCCc2ccc(F)cc2)c1	6.49
O=C(NCC1CCCCC1)c1cccnc1SCCCc1ccc(F)cc1	6.89
CCCCCNC(=O)c1cccnc1SCCC(F)(F)c1ccc(F)cc1	7.49
COc1ccc(CCCSc2ncccc2C(=O)NCC2CC3CCC2C3)cc1 (centres unmarked)	5.99
O=C(NCc1cccnc1)c1cccnc1SCCCc1ccc(F)cc1	5.73

[ask] Provide measured pEC50 value, entry: O=C(NCc1ccc2c(c1)OCO2)c1cccnc1SCCCc1ccc(F)cc1
[reply] 6.59

[ask] Provide measured pEC50 value, entry: CCCCNC(=O)c1cccnc1SCCCc1ccc(F)cc1
[reply] 6.87

[ask] Provide measured pEC50 value, entry: COc1ccc(CNC(=O)c2cccnc2SCCCc2ccc(F)cc2)cc1
[reply] 6.60
